# Test system: U251 CNS
# assay.procedure: NCI tumour cell line growth inhibition, 48 h
# reported TGI; entries follow

>  <compound>
Nc1ccc(C#Cc2cncnc2Nc2ccc(OCc3cccc(F)c3)c(Cl)c2)cc1

>  <reported.measurement>
> 25 µM

$$$$

CCCCCCOc1ccc(NC2=C(Cl)C(=O)c3cccnc3C2=O)cc1 yielded TGI of 7.29 µM

Lookup result for N=c1c2c3n(c4c(=O)n(-c5ccccc5)c(=S)n(c(=O)n1-c1ccccc1)c24)CCCCC3 ; measured TGI: > 100 µM

Input CCC(C(=O)[O-])C(=O)[O-].CCC(C(=O)[O-])C(=O)[O-].N.N.NCCCCCN.[Pt+4].[Pt+4] . Output TGI: > 100 µM

Form field TGI, entry O=[N+]([O-])c1ccc(/C=C/c2ccc(N=Nc3ccc(/C=C/c4ccc([N+](=O)[O-])cc4S(=O)(=O)O)c(S(=O)(=O)O)c3)cc2S(=O)(=O)O)c(S(=O)(=O)O)c1 : > 100 µM

Sample Cc1ccc(S(=O)(=O)CNC(=S)CCCC(=S)NCS(=O)(=O)c2ccc(C)cc2)cc1 ; TGI observed: > 100 µM

The value of TGI measured for the compound C=CC1OC(CCCOC(=O)C(C)(C)C)O[C@@H]1CC (some centres not stated) turned out to be > 100 µM

Measured TGI of O=C1Oc2ccccc2C(=O)/C1=C/N1C(=O)/C(=C/c2ccc([N+](=O)[O-])cc2)SC1=S : > 100 µM

Record CC(=O)O[C@H]1[C@@H]2[C@@H]3[C@@H](C[C@H]1C)[C@@H](C)CO[C@@]1(C)CC/C=C(/C)C[C@@H]2O[C@@H]31 . Reported TGI: > 100 µM

For record CN(C)CCNC(=O)c1cccc2cc3ccccc3nc12 the listed TGI is 4.91 µM

Please fill in: TGI reported for CC(SC(=S)N1CCCCC1)C(=O)Nc1nnc(-c2ccc(Cl)cc2)o1 (configuration not stated) = > 100 µM

Just so you know, measured TGI for CC(C)(C)c1cc(-c2ccc(-c3cc(C(C)(C)C)c(O)c(C(C)(C)C)c3)cc2)cc(C(C)(C)C)c1O came out at > 100 µM
